System: Escherichia coli TOP10;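 also: peptides expressed intracellularly from a pBAD plasmid library in pooled LB shake-flask culture, induced with 0.3% L-arabinose, DNA abundance read by NGS, three biological replicates, DESeq2 with apeglm shrinkage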
Assay: shrunken log2 fold change of peptide-encoding DNA abundance (4.5 h post-induction vs induction); higher = less antimicrobial activity (less host growth inhibition)
Conditions: time post-induction: 4.5 h; library: site-saturation at positions 5, 18, 19, 20
Give measured shrunken log2 fold change for each item. Keep answers brief.

Below, 5 sequences whose answers are already recorded.
RRIRVRPPRLPRPRPRPSMVPRP	-0.475
RRIRRRPPRLPRPRPRPNREPRP	0.232
RRIRARPPRLPRPRPRPMARPRP	-0.132
RRIRYRPPRLPRPRPRPWYTPRP	-1.81
RRIRVRPPRLPRPRPRPLRNPRP	0.408

// for each sequence in input: emit shrunken log2 fold change
1. RRIRERPPRLPRPRPRPRNRPRP
2. RRIRVRPPRLPRPRPRPGVDPRP
3. RRIRKRPPRLPRPRPRPAKDPRP
4. RRIRPRPPRLPRPRPRPKCGPRP
5. RRIRMRPPRLPRPRPRPTHWPRP
6. RRIRYRPPRLPRPRPRPRHHPRP
7. RRIRIRPPRLPRPRPRPVKQPRP

output:
1: -0.134; 2: 0.0334; 3: 0.247; 4: 0.574; 5: 0.864; 6: -0.846; 7: 0.101

// for each sequence in input: emit shrunken log2 fold change
1. RRIRRRPPRLPRPRPRPHSQPRP
2. RRIRKRPPRLPRPRPRPTYMPRP
3. RRIRGRPPRLPRPRPRPEFSPRP
4. RRIRRRPPRLPRPRPRPQAWPRP
5. RRIRTRPPRLPRPRPRPLEGPRP
6. RRIRPRPPRLPRPRPRPSLAPRP

output:
[0.0866, -0.121, 1.15, 0.0536, -0.0217, 0.185]
